Assay: Stability in Sprague-Dawley rat serum assessed as retention rate at 62.5 ug/ml measured after 2 hrs by RP-HPLC method
Format: ADME, cell-free
Details: at 62.5 µg/mL, read-out: Stability
Where a SMILES comes first, the peptide text is derived from it.
measure: remaining at 2 h, 62.5 ug/ml (%)
Give the value in % but do not write % after it.

Task: May I ask what remaining at 2 h, 62.5 ug/ml has been recorded for CC[C@H](C)[C@H](NC(=O)[C@H](Cc1ccccc1)NC(=O)[C@@H](N)Cc1c[nH]c2ccccc12)C(=O)N[C@H](C(=O)N[C@@H](Cc1c[nH]c2ccccc12)C(=O)N[C@@H](Cc1c[nH]cn1)C(=O)N[C@@H](Cc1c[nH]c2ccccc12)C(=O)N[C@@H](CCCNC(=N)N)C(=O)N[C@@H](CCCCN)C(=O)N[C@H](C(=O)N1CCC[C@H]1C(=O)N1CCC[C@H]1C(=O)N[C@@H](CCCCN)C(N)=O)[C@@H](C)CC)[C@@H](C)CC (H-WFIIWHWRKIPPK-NH2) ?
Result: 41.2
